Biological target: Cyno BCMA
Test: Kinetics and affinity of cyno BCMA/human IgG interactions by SPR (Bio-Rad Proteon XPR36)
Type: binding, cynomolgus
Details: 37° C.
Below, each entry is listed alongside its reported kd Cyno.
The response must be a number in s⁻¹ with no trailing unit.

* COMBO_Rd4_0.6 nM_C09: anti-BCMA antibody (antibody, V domains shown) VH: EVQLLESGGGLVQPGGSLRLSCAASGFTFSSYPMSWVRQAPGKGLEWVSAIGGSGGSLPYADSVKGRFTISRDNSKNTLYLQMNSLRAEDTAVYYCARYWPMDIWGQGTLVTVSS VL: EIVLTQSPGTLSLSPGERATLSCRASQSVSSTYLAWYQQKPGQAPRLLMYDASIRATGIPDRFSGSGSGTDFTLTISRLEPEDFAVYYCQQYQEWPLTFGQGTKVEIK | 0.000346
* COMBO_Rd4_6 nM_C12: anti-BCMA antibody (antibody, V domains shown) VH: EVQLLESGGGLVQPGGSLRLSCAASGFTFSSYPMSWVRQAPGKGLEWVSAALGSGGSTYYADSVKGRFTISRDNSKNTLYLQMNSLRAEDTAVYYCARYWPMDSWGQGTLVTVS VL: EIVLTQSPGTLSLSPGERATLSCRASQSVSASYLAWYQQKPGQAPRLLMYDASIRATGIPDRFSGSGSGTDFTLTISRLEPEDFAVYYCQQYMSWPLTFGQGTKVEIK | 0.000486

Q: Given the molecule A02_Rd4_6 nM_C23: anti-BCMA antibody (antibody, V domains shown) VH: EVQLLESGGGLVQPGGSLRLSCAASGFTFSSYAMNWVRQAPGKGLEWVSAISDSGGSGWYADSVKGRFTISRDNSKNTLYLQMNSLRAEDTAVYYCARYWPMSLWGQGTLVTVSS VL: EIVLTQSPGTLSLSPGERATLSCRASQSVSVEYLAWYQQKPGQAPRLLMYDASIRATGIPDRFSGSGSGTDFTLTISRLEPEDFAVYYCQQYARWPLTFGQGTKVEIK , what is its reported kd Cyno?
Ans: 0.000414
